# MEASURED TARGET: DNA III Polymerase E (Escherichia coli)
# Sequence (P10443 whole entry): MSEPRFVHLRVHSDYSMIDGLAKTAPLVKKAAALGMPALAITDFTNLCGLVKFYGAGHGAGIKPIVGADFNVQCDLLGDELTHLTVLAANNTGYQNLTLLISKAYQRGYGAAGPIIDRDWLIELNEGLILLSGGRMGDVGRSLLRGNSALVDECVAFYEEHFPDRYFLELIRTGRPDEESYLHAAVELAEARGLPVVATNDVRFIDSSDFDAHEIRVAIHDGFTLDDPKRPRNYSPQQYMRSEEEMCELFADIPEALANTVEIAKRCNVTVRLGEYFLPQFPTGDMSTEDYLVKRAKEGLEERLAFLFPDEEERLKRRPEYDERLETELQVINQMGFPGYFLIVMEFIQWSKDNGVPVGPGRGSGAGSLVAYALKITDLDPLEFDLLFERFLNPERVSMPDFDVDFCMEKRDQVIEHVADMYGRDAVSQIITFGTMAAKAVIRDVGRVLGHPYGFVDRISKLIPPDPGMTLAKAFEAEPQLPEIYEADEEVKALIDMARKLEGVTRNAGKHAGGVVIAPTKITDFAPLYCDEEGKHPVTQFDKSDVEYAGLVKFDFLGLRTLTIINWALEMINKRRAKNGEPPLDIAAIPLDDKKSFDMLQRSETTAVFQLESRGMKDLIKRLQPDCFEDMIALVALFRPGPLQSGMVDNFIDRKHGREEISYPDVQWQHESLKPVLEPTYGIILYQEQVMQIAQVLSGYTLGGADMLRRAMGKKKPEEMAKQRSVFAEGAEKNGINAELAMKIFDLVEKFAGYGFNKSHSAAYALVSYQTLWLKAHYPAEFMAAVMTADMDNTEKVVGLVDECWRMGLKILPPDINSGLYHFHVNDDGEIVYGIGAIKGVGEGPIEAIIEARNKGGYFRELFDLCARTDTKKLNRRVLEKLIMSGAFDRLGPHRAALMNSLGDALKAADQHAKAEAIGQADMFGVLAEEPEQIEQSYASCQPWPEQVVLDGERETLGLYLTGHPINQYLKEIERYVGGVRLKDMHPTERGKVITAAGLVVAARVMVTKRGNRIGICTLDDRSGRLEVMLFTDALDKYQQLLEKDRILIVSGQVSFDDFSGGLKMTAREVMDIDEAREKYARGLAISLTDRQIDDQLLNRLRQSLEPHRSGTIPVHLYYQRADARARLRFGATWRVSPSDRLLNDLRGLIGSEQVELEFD
# MEASUREMENT NOTES: In vitro activity against DNA III Polymerase E, E. coli
# Assay type: biochemical
# Method: A radioactive filterplate assay was used to assess inhibitory activity of compounds on DNA Polymerase IIIα. Five μL of a dilution series of compound, starting from 100 μM highest concentration, 1/5 dilution, was added to the wells of a 96 well plate. […] Samples were transferred to filter plates and incorporated radioactivity was measured by the Topcount. […] IC50 values were calculated using Graph Prism™ software.
pIC50: −log10 of the molar value.
QUANTITY MEASURED: pIC50

Could you tell me which pIC50 is on file for `COC[C@@H]1[C@@H](O)[C@@H]2[C@H]3C=C[C@@H]4[C@@H](COC)C(=O)O[C@H]([C@H](O)COC)[C@H](C)/C=C(\C)[C@@]24O[C@H]3[C@@H]1OC(=O)c1cc(F)c[nH]1` ?
4.77 to 5.77

Could you tell me which pIC50 is on file for `COC[C@@H]1[C@@H](O)[C@@H]2[C@H]3C=C[C@@H]4[C@@H](COC)C(=O)O[C@H]([C@H](O)COC)[C@H](C)/C=C(\C)[C@@]24O[C@H]3[C@@H]1OC(=O)c1cc(Cl)c[nH]1` ?
4.79 to 5.79

Could you tell me which pIC50 is on file for `COC[C@@H]1[C@@H](O)[C@@H]2[C@H]3C=C[C@@H]4[C@@H](COC)C(=O)OC[C@H](C)/C=C(\C)[C@@]24O[C@H]3[C@@H]1OC(=O)c1ccc[nH]1` ?
< 4.70

Could you tell me which pIC50 is on file for COC[C@@H]1[C@@H](O)[C@@H]2[C@H]3C=C[C@@H]4[C@@H](COC)C(=O)O[C@H](C(C)(O)COC)[C@H](C)/C=C(\C)[C@@]24O[C@H]3[C@@H]1OC(=O)c1ccc[nH]1 (some centres unmarked) ?
< 4.77

Could you tell me which pIC50 is on file for `COC[C@@H]1[C@@H](O)[C@@H]2[C@H]3C=C[C@@H]4[C@@H](COC)C(=O)O[C@H]([C@H](O)COC)[C@H](C)/C=C(\C)[C@@]24O[C@H]3[C@@H]1OC(=O)c1ccoc1C` ?
< 4.77

###

Field: IC50. Provide a value for each of the molecules that follow.
# MEASURED TARGET: DNA Polymerase IIIα (DnaE) from Staphylococcus aureus (Staphylococcus aureus, UniProt Q6GG04)
# Sequence (Q6GG04 1-1022): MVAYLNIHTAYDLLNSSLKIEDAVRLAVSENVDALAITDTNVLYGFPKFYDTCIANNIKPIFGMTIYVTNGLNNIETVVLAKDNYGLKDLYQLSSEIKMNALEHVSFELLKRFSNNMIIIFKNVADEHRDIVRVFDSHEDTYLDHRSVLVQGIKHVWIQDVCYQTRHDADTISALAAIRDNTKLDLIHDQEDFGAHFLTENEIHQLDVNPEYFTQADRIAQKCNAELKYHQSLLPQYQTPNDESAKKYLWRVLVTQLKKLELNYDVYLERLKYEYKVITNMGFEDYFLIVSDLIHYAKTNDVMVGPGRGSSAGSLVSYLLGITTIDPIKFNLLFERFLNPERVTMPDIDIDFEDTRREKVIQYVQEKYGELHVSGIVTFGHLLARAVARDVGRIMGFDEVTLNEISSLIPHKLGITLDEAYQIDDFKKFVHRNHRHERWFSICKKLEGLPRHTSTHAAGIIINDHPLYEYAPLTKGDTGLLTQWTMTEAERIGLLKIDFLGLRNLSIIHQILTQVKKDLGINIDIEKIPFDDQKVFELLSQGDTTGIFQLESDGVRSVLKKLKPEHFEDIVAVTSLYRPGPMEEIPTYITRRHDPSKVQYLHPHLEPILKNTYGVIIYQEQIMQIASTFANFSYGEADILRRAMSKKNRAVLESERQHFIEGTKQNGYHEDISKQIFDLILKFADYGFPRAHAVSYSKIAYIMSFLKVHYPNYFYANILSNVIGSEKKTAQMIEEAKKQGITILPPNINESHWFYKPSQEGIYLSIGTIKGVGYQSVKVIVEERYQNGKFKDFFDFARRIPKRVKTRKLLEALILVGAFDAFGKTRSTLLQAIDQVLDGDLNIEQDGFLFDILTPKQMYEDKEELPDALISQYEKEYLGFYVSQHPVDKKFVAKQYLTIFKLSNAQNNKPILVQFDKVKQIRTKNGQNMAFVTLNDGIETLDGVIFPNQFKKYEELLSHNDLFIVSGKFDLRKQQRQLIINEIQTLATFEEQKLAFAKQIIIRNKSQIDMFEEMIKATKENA
# MEASUREMENT NOTES: biochemical

Could you tell me which IC50 is on file for COC[C@@H]1[C@@H](O)[C@@H]2[C@H]3C=C[C@@H]4[C@@H](COC)C(=O)O[C@H]([C@@H](COC)OC)[C@H](C)/C=C(\C)[C@@]24O[C@H]3[C@@H]1OC(=O)c1ccc[nH]1 [Compound 18] ?
0.0017 to 1.7 µM

Could you tell me which IC50 is on file for COC[C@@H]1[C@@H](O)[C@@H]2[C@H]3C=C[C@@H]4[C@@H](COC)C(=O)O[C@H]([C@H](O)COC)[C@H](C)/C=C(\C)[C@@]24O[C@H]3[C@@H]1OC(=O)c1cc(F)c[nH]1 [Compound 19] ?
0.00168 to 1.68 µM

Could you tell me which IC50 is on file for CO[C@H]1C[C@H]2C=C[C@H]3[C@H]4O[C@]2(/C(C)=C/[C@@H](C)[C@@H]([C@@H](C)O)OC1=O)[C@@H]3[C@H](O)[C@@H](C)[C@H]4OC(=O)c1ccc[nH]1 [Nargenicin A1, reference compound] ?
0.00194 to 1.94 µM

Could you tell me which IC50 is on file for COCC(=NOC(C)=O)[C@H]1OC(=O)[C@H](COC)[C@H]2C=C[C@H]3[C@H]4O[C@]2(/C(C)=C/[C@H]1C)[C@@H]3[C@H](O)[C@@H](COC)[C@H]4OC(=O)c1ccc[nH]1 [Compound 29] ?
0.00159 to 1.59 µM

Could you tell me which IC50 is on file for COC[C@@H](O)[C@H]1OC(=O)[C@H](COC)[C@H]2C=C[C@H]3[C@H]4O[C@]2(/C(C)=C/[C@H]1C)[C@@H]3[C@H](O)[C@@H](C)[C@H]4OC(=O)c1ccc[nH]1 [Compound 3, 8-O-1H-pyrrole-2′-carbonylbaleomycin] ?
0.00183 to 1.83 µM

Could you tell me which IC50 is on file for COC[C@@H]1[C@@H](O)[C@@H]2[C@H]3C=C[C@@H]4[C@@H](COC)C(=O)O[C@H]([C@H](O)COC)[C@H](C)/C=C(\C)[C@@]24O[C@H]3[C@@H]1OC(=O)c1cc(C#N)c[nH]1 [Compound 26] ?
0.00166 to 1.66 µM

Could you tell me which IC50 is on file for COCC(=NO)[C@H]1OC(=O)[C@H](COC)[C@H]2C=C[C@H]3[C@H]4O[C@]2(/C(C)=C/[C@H]1C)[C@@H]3[C@H](O)[C@@H](COC)[C@H]4OC(=O)c1ccc[nH]1 [Compound 25] ?
0.0017 to 1.7 µM

Could you tell me which IC50 is on file for COC[C@@H]1[C@@H](O)[C@@H]2[C@H]3C=C[C@@H]4[C@@H](COC)C(=O)O[C@H]([C@H](O)COC)[C@H](C)/C=C(\C)[C@@]24O[C@H]3[C@@H]1OC(=O)c1cc(C)n[nH]1 [Compound 39] ?
1.69 to 16.9 µM

Could you tell me which IC50 is on file for COCC(=NO)[C@H]1OC(=O)[C@H](COC)[C@H]2C=C[C@H]3[C@H]4O[C@]2(/C(C)=C/[C@H]1C)[C@@H]3[C@H](O)[C@@H](COC)[C@H]4OC(=O)c1cc(Cl)c[nH]1 [Compound 41] ?
0.0016 to 1.6 µM

Could you tell me which IC50 is on file for COC[C@@H]1[C@@H](O)[C@@H]2[C@H]3C=C[C@@H]4[C@@H](COC)C(=O)OC[C@H](C)/C=C(\C)[C@@]24O[C@H]3[C@@H]1OC(=O)c1ccc[nH]1 [Compound 22] ?
0.00199 to 1.99 µM

Could you tell me which IC50 is on file for COC[C@@H]1[C@@H](O)[C@@H]2[C@H]3C=C[C@@H]4[C@@H](COC)C(=O)O[C@H]([C@H](O)COC)[C@H](C)/C=C(\C)[C@@]24O[C@H]3[C@@H]1OC(=O)c1cc(Cl)c[nH]1 [Compound 28] ?
0.00164 to 1.64 µM

Could you tell me which IC50 is on file for COC[C@@H]1[C@@H](O)[C@@H]2[C@H]3C=C[C@@H]4[C@@H](COC)C(=O)O[C@H](C(C)(O)COC)[C@H](C)/C=C(\C)[C@@]24O[C@H]3[C@@H]1OC(=O)c1ccc[nH]1 (stereo partly drawn) [Compound 24] ?
0.0017 to 1.7 µM

The reported numbers originate from patent US20160297830A1.
